# protocol-text: Tissue distribution studies of ARD-2585 in mice bearing VCaP tumors
# Assay type: in vivo
# experimental-conditions: male, SCID, mouse, plasma, po, 20 mg/kg
experimental-readout: concentration at 6 h (ng/mL)
Report the value in ng/mL with no unit label.

-- ask Note down concentration at 6 h recorded for CN(c1ccc(C#N)c(Cl)c1)[C@H]1CC[C@H](NC(=O)c2ccc(N3CCN(C4CN(c5ccc6c(c5)C(=O)N(C5CCC(=O)NC5=O)C6=O)C4)CC3)cc2)CC1 (stereo partly shown)
-- reply 134
